I'd be grateful if you could share measured MBC for these entries.
Test system: Escherichia coli
method: Bactericidal activity against Escherichia coli NIHJ JC-2 preincubated for 5 mins before addition of growth medium measured after 40 to 48 hrs
Assay type: functional
Dear colleague, please return just the value in µg/mL, with no unit written.

Just so you know, measured MBC for "CC(=O)O.CCCCCCCCNC1=NC(C)(C)NC(NCCCCCC)=N1" came out at 6.3

Just so you know, measured MBC for "CC(=O)O.CCCCCCCCNC1=NC(C)(C)NC(NCc2ccc(C)cc2)=N1" came out at 6.3

Just so you know, measured MBC for "CCCCCCCCCNC1=NC(C)(C)NC(NCc2ccc(OC)cc2)=N1.CS(=O)(=O)O" came out at 3.1

Just so you know, measured MBC for "CC(=O)O.CCCCCCCCCNC1=NC(C)(C)NC(Nc2ccccc2)=N1" came out at 3.1

Just so you know, measured MBC for "CC(=O)O.CCCCCCCCCCNC1=NC(C)(C)NC(NCc2ccccc2)=N1" came out at 6.3

Just so you know, measured MBC for "CC(=O)O.CCCCCCCCCCNC1=NC(C)(C)NC(NCc2ccc(OC)cc2)=N1" came out at 6.3

Just so you know, measured MBC for "CC(=O)O.CCCCCCCCNC1=NC(C)(C)NC(NCc2ccccc2Cl)=N1" came out at 1.6

Just so you know, measured MBC for "CC(=O)O.CCCCCCCCCNC1=NC(C)(C)NC(NCc2ccccc2)=N1" came out at 3.1

Just so you know, measured MBC for "CC(=O)O.CCCCCCCCNC1=NC(C)(C)NC(NCCCC)=N1" came out at 12.5

Just so you know, measured MBC for "CC(=O)O.CCCCCCCCCNC1=NC(C)(C)NC(NCc2ccc(C)cc2)=N1" came out at 1.6

###

System: Staphylococcus aureus
method: Bactericidal activity against methicillin-resistant Staphylococcus aureus 97-115 preincubated for 3 mins before addition of growth medium measured after 40 to 48 hrs
Format: functional
property: MBC (µg/mL)
Dear colleague, please return just the value in µg/mL, with no unit written.

Just so you know, measured MBC for "CC(=O)O.CCCCCCCCNC1=NC(C)(C)NC(Nc2ccccc2)=N1" came out at 12.5

Just so you know, measured MBC for "CC(=O)O.CCCCCCCCNC1=NC(NCCCCC)=NC(C)(C)N1" came out at 3.1

###

System: Staphylococcus aureus
method: Bactericidal activity against Staphylococcus aureus 209PJC preincubated for 3 mins before addition of growth medium measured after 40 to 48 hrs
Format: functional
I'd be grateful if you could share measured MBC for these entries.
Dear colleague, please return just the value in µg/mL, with no unit written.

Just so you know, measured MBC for "CCCCCCCCCCNC1=NC(C)(C)NC(NCCc2ccc(OC)cc2)=N1.Cl" came out at 12.5

Just so you know, measured MBC for "CC(=O)O.CCCCCCCCCNC1=NC(C)(C)NC(Nc2ccccc2)=N1" came out at 6.3

Just so you know, measured MBC for "CC(=O)O.CCCCCCCCCNC1=NC(C)(C)NC(NCCc2ccccc2)=N1" came out at 12.5

Just so you know, measured MBC for "CC(=O)O.CCCCCCCCNC1=NC(C)(C)NC(NCc2ccccc2Cl)=N1" came out at 6.3

Just so you know, measured MBC for "CC(=O)O.CCCCCCCCNC1=NC(C)(C)NC(Nc2ccccc2)=N1" came out at 6.3

The reported numbers originate from ChEMBL document CHEMBL1143313.
